ABSOLUTE EOSINOPHIL by entry:
species: Rattus norvegicus; assay: DrugMatrix - Regimen: Daily Repeat; type: toxicity, organism-based, Sprague-Dawley; design: regimen Daily Repeat, gender Male, age 6-8 weeks; settings: in vivo, po, 0 mg/kg, 72 h, tissue Blood, route oral GAVAGE, dose level Control, time 3 day, vehicle 100 % WATER

| COMPOUND | ABSOLUTE EOSINOPHIL, CELLS/uL |
| --- | --- |
| C[C@H](CS)C(=O)N1CCC[C@H]1C(=O)O [CAPTOPRIL] | 0 |
| CC(O)CO (stereo not drawn) [PROPYLENE GLYCOL] | 40 |
| C=CCC1(C(C)CCC)C(=O)NC(=O)NC1=O (stereo not drawn) [SECOBARBITAL] | 32.5 |
| C[C@H]1c2cccc(O)c2C(=O)C2=C(O)[C@]3(O)C(=O)C(C(N)=O)=C(O)[C@@H](N(C)C)[C@@H]3[C@@H](O)[C@@H]21.O [DOXYCYCLINE] | 86.33 |
| C[C@](N)(Cc1ccc(O)c(O)c1)C(=O)O [METHYLDOPA] | 46 |
| c1ccc([C@H]2CN3CCSC3=N2)cc1 [LEVAMISOLE] | 20.17 |
| CN(C)CCCN1c2ccccc2Sc2ccc(Cl)cc21 [CHLORPROMAZINE] | 108.67 |
| Clc1cccc(Cl)c1N=C1NCCN1 [CLONIDINE] | 24 |

###

CHOLESTEROL by entry:
species: Rattus norvegicus; experiment: DrugMatrix - Regimen: Daily Repeat; type: toxicity, organism-based, Sprague-Dawley; design: regimen Daily Repeat, gender Male, age 6-8 weeks; settings: in vivo, po, 0 mg/kg, 120 h, tissue Plasma, route oral GAVAGE, dose level Control, time 5 day, […]

| COMPOUND | CHOLESTEROL, mg/dL |
| --- | --- |
| Cc1ccc(-c2cc(C(F)(F)F)nn2-c2ccc(S(N)(=O)=O)cc2)cc1 [CELECOXIB] | 74.83 |
| OC(Cn1cncn1)(Cn1cncn1)c1ccc(F)cc1F [FLUCONAZOLE] | 74.83 |
| C[C@H]1O[C@@H](O[C@H]2[C@@H](O)C[C@H](O[C@H]3[C@@H](O)C[C@H](O[C@H]4CC[C@@]5(C)[C@H](CC[C@@H]6[C@@H]5C[C@@H](O)[C@]5(C)[C@@H](C7=CC(=O)OC7)CC[C@]65O)C4)O[C@@H]3C)O[C@@H]2C)C[C@H](O)[C@@H]1O [DIGOXIN] | 58.33 |
| Cc1oncc1C(=O)Nc1ccc(C(F)(F)F)cc1 [LEFLUNOMIDE] | 79.67 |
| CCOC(=O)C1=C(COCCN)NC(C)=C(C(=O)OC)C1c1ccccc1Cl (stereo not given) [AMLODIPINE] | 75.17 |

###

species on record: Rattus norvegicus; test: DrugMatrix - Regimen: Daily Repeat; type: toxicity, organism-based, Sprague-Dawley; parameters: regimen Daily Repeat, gender Male, age 6-8 weeks; conditions: in vivo, po, 0 mg/kg, 120 h, tissue Plasma, route oral GAVAGE, dose level Control, time 5 day, […]

| COMPOUND | GLUCOSE |
| --- | --- |
| CC(C)(Oc1ccc(Cl)cc1)C(=O)O | 162.33 mg/dL |
| Cc1noc(NS(=O)(=O)c2ccc(N)cc2)c1C | 184.17 mg/dL |
| CC(C)C(=O)Nc1ccc([N+](=O)[O-])c(C(F)(F)F)c1 [FLUTAMIDE] | 157.5 mg/dL |
| C[C@H]1O[C@@H](O[C@H]2[C@@H](O)C[C@H](O[C@H]3[C@@H](O)C[C@H](O[C@H]4CC[C@@]5(C)[C@H](CC[C@@H]6[C@@H]5C[C@@H](O)[C@]5(C)[C@@H](C7=CC(=O)OC7)CC[C@]65O)C4)O[C@@H]3C)O[C@@H]2C)C[C@H](O)[C@@H]1O | 163 mg/dL |
| C[C@@H]1CN(c2c(F)c(N)c3c(=O)c(C(=O)O)cn(C4CC4)c3c2F)C[C@H](C)N1 | 153 mg/dL |
| O=C(O)CCCc1ccc(N(CCCl)CCCl)cc1 | 164.17 mg/dL |
| O=NN(CCCl)C(=O)NC1CCCCC1 | 153 mg/dL |
| Cc1ccc(-c2cc(C(F)(F)F)nn2-c2ccc(S(N)(=O)=O)cc2)cc1 | 164.17 mg/dL |
| OC(Cn1cncn1)(Cn1cncn1)c1ccc(F)cc1F | 164.17 mg/dL |
| O=c1oc2ccccc2c(O)c1Cc1c(O)c2ccccc2oc1=O | 162.83 mg/dL |

###

species: Rattus norvegicus; test: DrugMatrix - Regimen: Daily Repeat; format: toxicity, organism-based, Sprague-Dawley; parameters: regimen Daily Repeat, gender Male, age 6-8 weeks; details: in vivo, iv, 0 mg/kg, 72 h, tissue Plasma, dose level Control, time 3 day, vehicle 100 % SALINE
Starred links: 1 amine or outer side, 2 acyl side, 3 side chain; linkers in the order of their positions; H or OH if unused. Positions of bridges follow the written chain, without caps; N, C: chain ends. Non-standard residues stand in square brackets, D forms with d. Residues, ends and D or L forms follow the SMILES beside them. Chains are numbered I, II in the order given. Actinocin(9to1) = Cc1c2oc3c(C)ccc(C(=O)[*:1])c3nc-2c(C(=O)[*:2])c(N)c1=O; NMeV = CN[C@H](C(=O)O)C(C)C; Sar = CNCC(=O)O

| MOLECULE | ALANINE AMINOTRANSFERASE [u/L] |
| --- | --- |
| Cc1ccc(N(CC2=NCCN2)c2cccc(O)c2)cc1 [PHENTOLAMINE] | 46.83 |
| Cc1c2oc3c(C)ccc(C(=O)N[C@@H]4C(=O)N[C@H](C(C)C)C(=O)N5CCC[C@H]5C(=O)N(C)CC(=O)N(C)[C@@H](C(C)C)C(=O)O[C@@H]4C)c3nc-2c(C(=O)N[C@@H]2C(=O)N[C@H](C(C)C)C(=O)N3CCC[C@H]3C(=O)N(C)CC(=O)N(C)[C@@H](C(C)C)C(=O)O[C@@H]2C)c(N)c1=O [DACTINOMYCIN] (I: T[dV]P[Sar][NMeV] / II: T[dV]P[Sar][NMeV]; ester I:1-I:C, II:1-II:C; linker I:N-II:N via Actinocin(9to1)) | 46.17 |
| CC[C@]1(O)C[C@H]2CN(CCc3c([nH]c4ccccc34)[C@@](C(=O)OC)(c3cc4c(cc3OC)N(C=O)[C@H]3[C@@](O)(C(=O)OC)[C@H](OC(C)=O)[C@]5(CC)C=CCN6CC[C@]43[C@@H]65)C2)C1 [VINCRISTINE] | 51.67 |
| COc1cc2c3cc1Oc1cc(ccc1O)C[C@@H]1c4c(cc(OC)c(O)c4Oc4ccc(cc4)C[C@@H]3N(C)CC2)CC[N+]1(C)C.[Cl-] | 64.83 |

###

CREATINE PHOSPHOKINASE by entry:
species: Rattus norvegicus; assay: DrugMatrix - Regimen: Daily Repeat; assay type: toxicity, organism-based, Sprague-Dawley; parameters: regimen Daily Repeat, gender Male, age 6-8 weeks; conditions: in vivo, po, 0 mg/kg, 120 h, tissue Plasma, route oral GAVAGE, dose level Control, time 5 day, vehicle 100 % WATER

| COMPOUND | CREATINE PHOSPHOKINASE (u/L) |
| --- | --- |
| Cn1cc[nH]c1=S | 248.33 |
| COc1cc2nc(N3CCN(C(=O)C4COc5ccccc5O4)CC3)nc(N)c2cc1OC (stereo not given) | 255.33 |
| N[C@@H](Cc1ccc(O)c(O)c1)C(=O)O | 255.33 |
| CC(O)CO (stereo not given) | 441.5 |
| C[C@](N)(Cc1ccc(O)c(O)c1)C(=O)O | 281.83 |
| Cc1onc(-c2ccccc2Cl)c1C(=O)N[C@@H]1C(=O)N2[C@@H]1SC(C)(C)[C@@H]2C(=O)O | 441.5 |
| Nc1c2c(nc3ccccc13)CCCC2 | 130.67 |
| c1ccc([C@H]2CN3CCSC3=N2)cc1 | 533.33 |
| CNNCc1ccc(C(=O)NC(C)C)cc1 | 253.33 |
| C[C@H]1c2cccc(O)c2C(=O)C2=C(O)[C@]3(O)C(=O)C(C(N)=O)=C(O)[C@@H](N(C)C)[C@@H]3[C@@H](O)[C@@H]21.O | 255.33 |
| C[C@H](CS)C(=O)N1CCC[C@H]1C(=O)O | 771.33 |
| Clc1cccc(Cl)c1N=C1NCCN1 | 518.5 |
| NCCCCCC(=O)O | 441.5 |
| CN(C)CCCN1c2ccccc2Sc2ccc(Cl)cc21 | 208.67 |
| C=CCC1(C(C)CCC)C(=O)NC(=O)NC1=O (stereo not given) | 237.17 |
